Data origin, for the record: patent US20240116999A1

- Test system: normal rats
- method.description: In vivo glucagon activity assay in normal rats
- Design: species or system rat
- measurement.conditions: subcutaneous injection, FIGS. 9, 10, 13
Bridge positions count the residues as written; N and C are the ends. Square brackets hold non-standard residues; d marks the D form. Ends that are not written are not given here. Orn = NCCC[C@H](N)C(=O)O
metric.name: in vivo glucagon activity (rise in blood glucose)

Which measured in vivo glucagon activity (rise in blood glucose) value corresponds to HSQGTFTSDYSOKLDSEOAQDFVQWLMNTEEK (HSQGTFTSDYS[Orn]KLDSE[Orn]AQDFVQWLMNTEEK; lactam 13-17) [[Lys13, Glu17]-glucagon-EEK linear, includes the [Lys13-Glu17] substitutions but not the side-chain lactam bond] ? inactive

Query HSQGTFTSKYSOELDSOOAQDFVQWLMNTEEK (HSQGTFTSKYS[Orn]ELDS[Orn][Orn]AQDFVQWLMNTEEK; lactam 9-13) [SEQ ID NO: 24] next inactive
